biological target: Matrix metalloproteinase-9 (Homo sapiens); experiment: Inhibition of collagen IV degradation by matrix metalloprotease-9 at 10 uM
Label scheme for Inhibition ratio: lower than 30% is criterion not met, 30% and above is criterion met.

As a guide, the following entries are already answered.
Nc1ncnc2c1ncn2CCOP(=O)(O)O | criterion met
Nc1ncnc2c1ncn2CCO | criterion not met
Nc1ncnc2c1ncn2CCOP(=O)(O)OP(=O)(O)OP(=O)(O)O | criterion met
CNc1ncnc2c1ncn2CCOP(=O)(O)O | criterion met

Consider the record given below.
Form field: Inhibition ratio at least 30%? Entry: `Nc1ncnc2c1nc(Br)n2CCOP(=O)(O)O` criterion not met

Source listed as ChEMBL document CHEMBL1150494.
